System: NIH3T3
Experiment: qHTS assay to identify novel small-molecules to repurpose for Merkel cell carcinoma treatment (AID 1296009); further: nearly all actives have a fitted effect of over 60% in size
Conditions: MCC and control cell lines, CellTiter-Glo viability, 72 h; series mostly up to 44.8 µM
From the text: MCC is a rare and aggressive neuroendocrine skin cancer with limited treatment options. Approximately 80% of MCCs have the Merkel cell polyomavirus (MCPyV) DNA integrated into the host genome (virus-positive: VP-MCC) and viral oncogenes drive oncogenesis. The remaining MCCs are virus-negative (VN-MCC) and are caused by UV mutagenesis. […] Using cell viability as a readout (CellTiter-Glo assay) we found both overlapping and distinct drugs that can be repurposed for the treatment of VP-MCC and VN-MCC. […]
Inconclusive results are not listed. The source made the active and inactive calls. The call rests on the fitted dose curve; in most records, active means well fitted inhibition curve with a large enough effect; inconclusive means small, poorly fitted or top-dose-only effect; inactive means flat fitted curve, though single readings scatter.
measurement type: outcome

Examples with answers:
compound	outcome
CCOc1ccc(S(=O)(=O)N2CCCCCC2)c2ccccc12	inactive
C=C1CCC2C(C)(C(=O)O)CCCC2(C)C1CCC1=CCOC1=O (stereo not given)	inactive
Cc1cc(NC(=O)NCCN2CCC(O)(Cc3ccccc3)CC2)c2ccccc2n1	inactive
COc1ccccc1-c1ccc(-c2cn(C(=O)N3CCCCC3Cc3ccccc3)nn2)cc1 (stereo not given)	inactive

Consider the record given below.
Report outcome for CC(=O)OC(C)(C)/C=C/C(=O)C(C)(O)C1C(O)CC2(C)C3CC=C(C(C)(C)C(=O)O)C(CC(=O)O)C3(C)C(=O)CC12C (stereo not given)
inactive

###

activity: recorded values
Target: Phenylethanolamine N-methyltransferase (Homo sapiens) (UniProt P11086)
Sequence (P11086 whole entry, looked up): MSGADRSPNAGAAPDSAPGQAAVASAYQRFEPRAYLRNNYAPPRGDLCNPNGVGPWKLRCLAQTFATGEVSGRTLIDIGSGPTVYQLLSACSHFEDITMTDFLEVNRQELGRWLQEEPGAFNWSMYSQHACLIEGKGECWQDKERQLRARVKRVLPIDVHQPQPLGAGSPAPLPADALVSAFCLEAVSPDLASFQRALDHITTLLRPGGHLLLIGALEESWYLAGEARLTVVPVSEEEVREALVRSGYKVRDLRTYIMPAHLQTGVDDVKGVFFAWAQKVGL
Test: Confirmatory Screen for Target Class Profiling of Small Molecule Inhibitors of Methyltransferases (AID 1745852)
Settings: MTase-Glo luminescence, SAH detection, recombinant enzyme; measured here: PNMT max response; stronger effect = lower value
Could you give me the number in %? Just the number is fine.

Examples with answers:
CCN(CC)C(=O)c1ccc(Nc2nc(OCC3CCCCC3)c3[nH]cnc3n2)cc1 -18.4
C=C1C(=O)O[C@@H]2C=C(COC(C)=O)CC/C=C(\CO)CC[C@@H]12 0.0072
Nc1nc(NC2CC2)cc(-c2cccc(Cl)c2Cl)n1 -7.75

Report activity for Cc1nnc(C[C@@H]2C=C(c3ccc(Cl)cc3)c3ccccc3-n3c(C)nnc32)o1
3.69

Report activity for CC[C@H]1CN(c2nc(N)c(C(N)=O)nc2Cl)CCN1C1CCN(Cc2ccc(Cl)cc2)CC1
-5.17

Report activity for CN(C)c1ccc(NC(=O)NS(=O)(=O)c2ccc(Cl)cc2)cc1
-83.5

Report activity for CCc1c(Cl)c(O)c(Cl)c(O)c1C(=O)O[C@H]1[C@H](O)[C@H](OC)[C@H](OC/C2=C\C=C\C[C@H](O)/C(C)=C\[C@H](CC)[C@@H](O[C@@H]3OC(C)(C)[C@@H](OC(=O)C(C)C)[C@H](O)[C@@H]3O)/C(C)=C/C(C)=C/C[C@@H]([C@@H](C)O)OC2=O)O[C@@H]1C
-8.05

Report activity for Cc1cc(C)cc(-c2cnc3cc(Cl)c(-c4cccc(O)c4)cc3c2OCCCN)c1
-37.3

###

Potency: recorded values
Test system: HEK293
Experiment: Cytotoxic Profiling of Annotated Libraries Using Quantitative High-Throughput Screening (AID 1296008); further: potency means the concentration at half of the fitted maximal effect; nearly all actives have a fitted effect of over 60% in size
Conditions: Five cell lines viability, CellTiter-Glo ATP luminescence, 48-72 h
Method: Cell-based phenotypic screening is a commonly used approach to discover biological pathways, novel drug targets, chemical probes and high-quality hit-to-lead molecules. […] A pintool (Kalypsys) was used to transfer 23 nL of compound solution to the 1536-well assay plates. […] Plates were left at room temperature for 10 min before imaging the ATP-coupled luminescence using a ViewLux microplate imager (PerkinElmer, Waltham, MA).
Results filed as inconclusive are left out. Activity calls are given as the source filed them. Calls follow the shape of the dose curve; as a rule, active = well fitted inhibition curve with a large enough effect; inconclusive = small, poorly fitted or top-dose-only effect; inactive = flat fitted curve, though single readings scatter.

compound	test result
COc1cccc(-c2cn(-c3ccc(CCN4CCC(O)CC4)cc3)c3ncnc(N)c23)c1	8.2 µM (active)
CCOC(=O)c1cnc2ccc(-c3cncc(NS(=O)(=O)c4ccccc4)c3)cn12	1.03 µM (active)
CCc1cnc(N2CCC(c3nc(COc4ccc(-n5cnnn5)cc4)cs3)CC2)nc1	13 µM (active)
CNC(=O)[C@@H](c1ccccc1)N1CCc2cc(OC)c(OC)cc2[C@@H]1CCc1ccc(C(F)(F)F)cc1	16.4 µM (active)
COc1ccc2nc(-c3cc(OC)c(OC)c(OC)c3)cc(C(=O)NCC(=O)Nc3ccc(C(C)=O)cc3)c2c1	7.31 µM (active)
C=C1C(=O)O[C@@H]2[C@H]3C(C)=CC(=O)C3=C(C)CC[C@@H]12	2.06 µM (active)
Nc1nc(Cl)nc2c1ncn2C1OC(CO)C(O)C1F (configuration not stated)	2.06 µM (active)
NCC1CCN(c2nccc(-c3ccc4ccccc4c3)n2)CC1	11.6 µM (active)

Report Potency for Cc1[nH]c(/C=C2\C(=O)Nc3ccc(S(=O)(=O)N(C)c4cccc(Cl)c4)cc32)c(C)c1C(=O)N1CCN(C)CC1
6.51 µM (active)

Report Potency for c1ccc(-c2ccc(CNc3nc(-c4ccccn4)nnc3-c3ccccc3)cc2)cc1
5.17 µM (active)

Report Potency for C=C1C(=O)OC2/C=C(/C)C3=CC(=O)C(C)(CC(OC(=O)/C(C)=C/COC(C)=O)C12)O3 (configuration not stated)
2 µM (active)
